test.system: furin (Homo sapiens, UniProt P09958)
Construct: endogenous in cells; host or cells: HEK293
Sequence (P09958 108-794): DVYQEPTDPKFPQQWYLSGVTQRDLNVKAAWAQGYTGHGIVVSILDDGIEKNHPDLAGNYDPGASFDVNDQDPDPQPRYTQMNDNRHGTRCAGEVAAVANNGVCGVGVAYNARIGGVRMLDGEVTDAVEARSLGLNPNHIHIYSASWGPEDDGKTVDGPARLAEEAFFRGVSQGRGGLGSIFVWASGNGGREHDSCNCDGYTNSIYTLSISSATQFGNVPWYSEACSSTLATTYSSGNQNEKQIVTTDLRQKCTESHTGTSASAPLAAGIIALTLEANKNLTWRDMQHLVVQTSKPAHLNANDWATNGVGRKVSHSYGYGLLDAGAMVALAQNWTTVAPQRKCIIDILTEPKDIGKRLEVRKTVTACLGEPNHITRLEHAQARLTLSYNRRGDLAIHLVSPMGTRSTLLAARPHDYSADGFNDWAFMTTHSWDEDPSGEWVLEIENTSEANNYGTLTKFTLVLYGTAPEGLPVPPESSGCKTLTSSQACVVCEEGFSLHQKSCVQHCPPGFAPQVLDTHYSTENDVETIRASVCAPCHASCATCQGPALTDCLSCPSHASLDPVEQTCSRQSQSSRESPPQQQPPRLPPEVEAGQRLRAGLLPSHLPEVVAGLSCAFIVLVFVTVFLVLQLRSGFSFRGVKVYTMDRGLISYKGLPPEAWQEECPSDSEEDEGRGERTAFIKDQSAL
Type: cell-based
Peptide text beside a SMILES is read from it. * marks the point of attachment. X2 = N=C(N)NC/C=C/CN*
readout: potency against furin in cell fusion inhibition, compared to RxxT control peptide

INSERT INTO measurements (compound, val) VALUES
  ('CC(=O)NN(CCCNC(=N)N)CC(=O)N[C@@H](C)C(=O)N[C@@H](CCCNC(=N)N)C(=O)N[C@@H](CCCNC(=N)N)C(=O)N[C@@H](CCCNC(=N)N)C(=O)N[C@@H](CCCCN)C(=O)N[C@@H](CCCCN)C(=O)NN(CCCNC(=N)N)CC(=O)N[C@H](C(N)=O)[C@@H](C)O [RxxT[Azaβ3R]^P1-P8]', 'increased potency'),
  ('C[C@H](NC(=O)[C@H](CCCNC(=N)N)NC(=O)CCCCCCCN)C(=O)N[C@@H](CCCNC(=N)N)C(=O)N[C@@H](CCCNC(=N)N)C(=O)N[C@@H](CCCNC(=N)N)C(=O)N[C@@H](CCCCN)C(=O)N[C@@H](CCCCN)C(=O)NN(CCCNC(=N)N)CC(=O)N[C@H](C(N)=O)[C@@H](C)O [Aoc-RxxT[Azaβ3R]^P1]', 'increased potency'),
  ('CC(=O)N[C@@H](CCCNC(=N)N)C(=O)N[C@@H](C)C(=O)N[C@@H](CCCNC(=N)N)C(=O)N[C@@H](CCCNC(=N)N)C(=O)N[C@@H](CCCNC(=N)N)C(=O)N[C@@H](CCCCN)C(=O)N[C@@H](CCCCN)C(=O)NC/C=C/CNC(=N)N [Rxx[ΔAR-CO2]^P1] (Ac-RARRRKK-X2; N-terminus and C-terminus assumed)', 'increased potency');
